Tested on: DGKa (Homo sapiens (Human));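 also: biochemical DGK kinase assay, ADP-Glo luminescence from ADP made by phosphorylating 1,2-dioleoyl-sn-glycerol, 20 min compound preincubation then 40 min reaction at 25 °C, 1% DMSO control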
Sequence (P23743 whole entry): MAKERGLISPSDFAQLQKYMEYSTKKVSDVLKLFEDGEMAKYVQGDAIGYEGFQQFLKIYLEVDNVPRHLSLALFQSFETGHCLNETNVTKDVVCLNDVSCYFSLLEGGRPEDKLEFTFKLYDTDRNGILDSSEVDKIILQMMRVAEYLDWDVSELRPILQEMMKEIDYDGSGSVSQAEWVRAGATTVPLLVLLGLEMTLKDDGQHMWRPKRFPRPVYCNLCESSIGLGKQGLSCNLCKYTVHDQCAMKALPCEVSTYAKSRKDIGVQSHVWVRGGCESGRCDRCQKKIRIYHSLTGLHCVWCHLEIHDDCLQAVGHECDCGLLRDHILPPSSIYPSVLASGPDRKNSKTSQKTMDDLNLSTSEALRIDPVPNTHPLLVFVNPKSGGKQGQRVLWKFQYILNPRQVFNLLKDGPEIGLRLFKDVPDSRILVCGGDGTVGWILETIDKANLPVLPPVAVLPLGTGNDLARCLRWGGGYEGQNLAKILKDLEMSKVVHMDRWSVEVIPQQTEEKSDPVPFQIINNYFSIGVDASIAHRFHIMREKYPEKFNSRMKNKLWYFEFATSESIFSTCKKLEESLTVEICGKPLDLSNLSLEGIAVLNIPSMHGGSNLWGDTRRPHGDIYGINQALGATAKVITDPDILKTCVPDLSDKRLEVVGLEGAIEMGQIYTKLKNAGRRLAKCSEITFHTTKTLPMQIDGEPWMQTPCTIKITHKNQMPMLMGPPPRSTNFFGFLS
Assay metric: IC50 (nM)

Record excerpt, results attached:
compound="Cc1ccc2oc(C3CCN(c4nc(=O)n(C)c5ccc(C#N)nc45)CC3)nc2c1 [Compound 20]" value_units=nM measured_number=1160
compound="N#Cc1ccc2c(n1)c(N1CCC3(CC1)CC(c1ccc(C(F)(F)F)cc1)=NO3)nc1nncn12 [Compound 53]" value_units=nM measured_number=85
compound="CC[C@H]1CN(C(c2ccc(S(F)(F)(F)(F)F)cc2)c2nc(C3CC3)no2)[C@H](CC)CN1c1nc(=O)n(C)c2ccc(C#N)nc12 (stereo partly shown) [Compound 64]" value_units=nM measured_number=10
compound="CC[C@H]1CN([C@@H](CC)c2ccc(OC)cc2F)[C@H](CC)CN1c1nc2nncn2c2ccc(C#N)nc12 (stereo in doubt) [Compound 115]" value_units=nM measured_number=3
compound="CC[C@H]1CN([C@@H]2CCCCc3cc(C(F)(F)F)ccc32)[C@H](CC)CN1c1nc2nncn2c2ccc(C#N)nc12 [Compound 114]" value_units=nM measured_number=30

I. Cn1c(=O)nc(N2CCC3(CC2)CC(c2cccc(C(F)(F)F)c2)=NO3)c2nc(C#N)ccc21 [Compound 47]
II. CCC(c1ccc(C23CC(C2)C3)nc1)N1C[C@H](CC)N(c2nc3nncn3c3ccc(C#N)nc23)C[C@H]1CC (stereo partly shown) [Compound 104]
Prompt line: Which is greater in IC50, the first item I or the second item II ? Output the label that corresponds to your choice.
Response line: II

---

Tested on: UniProt P23743
Method summary: biochemical
pIC50: −log10 of the molar value.
Assay metric: pIC50

compound="CC[C@@H]1CN(c2nc3nncn3c3ccc(C#N)nc23)[C@@H](C)CN1[C@H](CC)c1ccc(S(F)(F)(F)(F)F)cc1 (stereo in doubt) [Compound 90]" assay_metric=pIC50 measured_number=8.00

1. CC[C@@H]1CN(c2nc3nncn3c3ccc(C#N)nc23)[C@@H](C)CN1[C@@H](CC)c1ccc(S(F)(F)(F)(F)F)cc1 (stereo in doubt) [Compound 80]
2. CC[C@H]1CN([C@@H](c2ccc(S(F)(F)(F)(F)F)cc2)C2CC2)[C@H](CC)CN1c1nc(=O)n(C)c2ccc(C#N)nc12 (stereo in doubt) [Compound 118]
Prompt line: Between the entries labeled 1 and 2 , whose measured pIC50 is lower? Output the label that corresponds to your choice.
Response line: 2
(2: 7.66, 1: 7.92)

---

System: PBMC
Method summary: Human PBMC IL-2 assay
Type: cell-based
Experimental parameters: anti-CD3/CD28 stimulation overnight, IL-2 level
Assay metric: EC50 (nM)
Give the quantity in nM, number only.

Record excerpt, results attached:
compound="CC[C@@H]1CN2c3c(c(=O)n(C)c4ccc(C#N)nc34)OC[C@@H]2CN1[C@@H](CC)c1ccc(Cl)c(F)c1 (stereo in doubt)" measured_number=12
compound="C[C@@H]1CN2c3c(c(=O)n(C)c4ccc(C#N)nc34)OC[C@@H]2CN1[C@H](C)c1ccc(Cl)cc1 (stereo in doubt)" measured_number=616
compound="CC[C@@H]1CN2c3c(c(=O)n(C)c4ccc(C#N)nc34)OC[C@@H]2CN1[C@@H](CC)c1ccc(C(F)(F)F)c(Cl)c1 (stereo in doubt)" measured_number=23

Prompt line: Please indicate EC50 recorded for CC[C@@H](c1ccc(C(F)(F)F)cc1)N1C[C@H]2COc3c(c4nc(C#N)ccc4n(C)c3=O)N2C[C@H]1C (stereo in doubt)
Response line: 58

Prompt line: Please indicate EC50 recorded for CC[C@H]1CN([C@H](CC)c2ccc(F)c(F)c2)[C@H](CC)CN1c1nc2nncn2c2ccc(C#N)nc12 (stereo in doubt)
Response line: 520

Prompt line: Please indicate EC50 recorded for CC[C@@H](c1ccc(Cl)c(Cl)c1)N1C[C@H]2COc3c(c4nc(C#N)ccc4n(C)c3=O)N2C[C@H]1C (stereo in doubt)
Response line: 25

Prompt line: Please indicate EC50 recorded for CC[C@@H]1CN2c3c(c4nncn4c4ccc(C#N)nc34)OC[C@@H]2CN1[C@@H](CC)c1ccc(C(F)(F)F)cc1
Response line: 31

Prompt line: Please indicate EC50 recorded for C[C@@H]1CN2c3c(c(=O)n(C)c4ccc(C#N)nc34)OC[C@@H]2CN1[C@@H](C)c1ccc(Cl)cc1F (stereo in doubt)
Response line: 23

Prompt line: Please indicate EC50 recorded for CC[C@@H]1CN2c3c(c(=O)n(C)c4ccc(C#N)nc34)OC[C@@H]2CN1[C@@H](CO)c1ccc(C(F)(F)F)cc1
Response line: 662

Prompt line: Please indicate EC50 recorded for CC[C@@H]1CN2c3c(c(=O)n(C)c4ccc(C#N)nc34)OC[C@@H]2CN1[C@H](CC)c1ccc(C(F)(F)F)c(F)c1 (stereo in doubt)
Response line: 56

Prompt line: Please indicate EC50 recorded for CC[C@@H]1CN2c3c(c(=O)n(C)c4ccc(C#N)nc34)CC[C@@H]2CN1[C@H](CC)c1ccc(C(F)(F)F)cc1
Response line: 64

Prompt line: Please indicate EC50 recorded for CC[C@@H](c1ccc(C(F)(F)F)c(F)c1)N1C[C@H]2COc3c(c4nc(C#N)ccc4n(C)c3=O)N2C[C@H]1C (stereo in doubt)
Response line: 54

Prompt line: Please indicate EC50 recorded for CCC[C@@H]1CN2c3c(c(=O)n(C)c4ccc(C#N)nc34)OC[C@@H]2CN1[C@H](C)c1ccc(OCC2CC2)cc1F (stereo in doubt)
Response line: 233

Prompt line: Please indicate EC50 recorded for C[C@@H]1CN2c3c(c(=O)n(C)c4ccc(C#N)nc34)OC[C@@H]2CN1[C@@H](C)c1ccc(C(F)(F)F)cc1 (stereo in doubt)
Response line: 47

Prompt line: Please indicate EC50 recorded for C[C@@H]1CN2c3c(c(=O)n(C)c4ccc(C#N)nc34)OC[C@@H]2CN1[C@H](C)c1ccc(Cl)c(Cl)c1 (stereo in doubt)
Response line: 1100

Prompt line: Please indicate EC50 recorded for CC[C@@H]1CN2c3c(c(=O)n(C)c4ccc(C#N)nc34)OC[C@@H]2CN1[C@@H](CC)c1ccc(Cl)cc1F (stereo in doubt)
Response line: 10

Prompt line: Please indicate EC50 recorded for CC[C@@H]1CN2c3c(c(=O)n(C)c4ccc(C#N)nc34)OC[C@@H]2CN1[C@@H](CC)c1ccc(Cl)cc1 (stereo in doubt)
Response line: 11

Prompt line: Please indicate EC50 recorded for CC[C@H]1CN([C@H](C)c2ccc(C(F)(F)F)cc2)[C@H](C)CN1c1nc2nncn2c2ccc(C#N)nc12 (stereo in doubt)
Response line: 63

Prompt line: Please indicate EC50 recorded for CC[C@@H]1CN2c3c(c(=O)n(C)c4ccc(C#N)nc34)OC[C@@H]2CN1[C@@H](CC)c1cccc(C(F)(F)F)c1 (stereo in doubt)
Response line: 162
